Molecular target: T1, human IL-33 (Genentech, huIL33.his) (human, UniProt O95760 112-270)
T1 sequence (looked up): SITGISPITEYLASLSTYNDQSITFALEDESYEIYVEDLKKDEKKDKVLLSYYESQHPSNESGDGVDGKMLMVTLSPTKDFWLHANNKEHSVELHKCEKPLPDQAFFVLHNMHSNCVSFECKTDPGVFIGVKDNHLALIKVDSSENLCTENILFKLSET
Assay: SPR Biacore
Please respond with reported Kd for every item in the list.

Given the entry 101.B11 (antibody, V domains shown, Transgenic mouse / phage display) VH: QVQLVQSGGGLVQPGGSLKLSCAASGFTFSGSAMHWVRQASGKGLEWVGRIRSRNNNYATAYAASVKGRFTISRDDSKRTTYLQMNSLKTEDTAVYYCTRLQQPPFDYWGQGTLVTVSS VL: DIQMTQSPSSLSASVGDRVTITCRASQGIRNDLDWYQQKPGKAPKRLIYAASSLQSGVPSRFNGSGSGTEFTLTISSLQPEDFATYYCLQHDSYPLTFGGGTKVEIK , report its measured Kd.
0.527 nM

Next record, please: 10C12 (antibody, V domains shown, Murine hybridoma clone from IL33 KO mouse) VH: DVNLVESGGGSVKPGGSLKLSCVASGFTFSSFSMSWVRQTPEKRLEWVATISGGKTFTDYVDSVKGRFTISRDDAKNTLYLQMSSLESEDTAMYYCTRANYGNWFFEVWGAGTTVAVSS VL: DIVLTQSPGFLVVSLGQRATISCRASESVAKYGLSLLNWFQQKPGQPPKLLIFAASNRGSGVPARFSGSGSGTDFSLNIHPMEEDDTAMYFCQQSKEVPFTFGSGTKLEIK
≤ 0.007 nM

Query 2B6.55A (NA) (antibody, V domains shown, Humanized variant of 2B6) VH: EVQLVQSGAEVKKPGASVKVSCKASGYTFSDYNMNWVRQAPGQGLESIGDINPKNADTFYNQNFKDRATLTIDKSTSTAYLELSSLRSEDTAVYYCARHYYYGSSYGGFVYWGQGTLVTVSS VL: DIQMTQSPSSLSASVGDRVTITCHASQNINVWLSWYQQKPGKNPKLLIYAASKLHTGVPSRFSGSGSGTDFTLTISSLQPEDFATYYCQQGQSYPLTFGQGTKVEIK next
0.363 nM

And the next one, 9F6.34.E10 (antibody, V domains shown, Humanized variant of 9F6) VH: EVQLVQSGAEVKKPGASVKVSCKASGYTFTSYWINWVRQAPGQGLEWIGRIAPGSGFISYNELFKDRVTITRDTSTSTAYLELSSLRSEDTAVYYCAREFYYGSFYGGFAYWGQGTLVTVSS VL: DIQMTQSPSSLSASVGDRVTITCHASQNIHVWLSWYQQKPGKAPKLLIYKASTLHTGVPSRFSGSGSGTDFTLTISSLQPEDFATYYCQQGQSSPLTFGQGTKVEIK ?
0.795 nM

What about this binder? 9F6 (antibody, V domains shown, Murine hybridoma clone (Balb/C)) VH: QVQLQQSGNDLVKPGASVKLSCKASGYTFTSYWINWIKQRPGQGLEWIGRIAPGSGFISYNELFKDKATLTVDTSSSTAYIQLGSLSSEDSAVYFCAREFYYGSFYGGFAYWGQGTLVTVSA VL: DIQMNQSPSSLSASLGDTITITCHASQNIHVWLSWYQQKPGNIPKLLIYKASTLHTGVPSRFNGSGSGTGFTLTISSLQPEDIATYYCQQGQSSPLTFGAGTKLEVK
0.07 nM
